# System: NCI-H1355 (Lung Adenocarcinoma)
# assay: combination Emax (second highest fraction inhibited in the dose matrix, 72 h); higher = more inhibition; extreme values may be limits of the assay
measurement.type: combination Emax

Given the entry CN(CCO)CC[C@H](CSc1ccccc1)Nc1ccc(S(=O)(=O)NC(=O)c2ccc(N3CCC([C@@H](O)c4ccccc4-c4ccc(Cl)cc4)CC3)cc2)cc1S(=O)(=O)C(F)(F)F [AZD4320] + Cc1cc2ncnn2cc1Nc1ncc2c(n1)n(C1CCOCC1)c(=O)n2C [AZD7648] (first compound max 1 µM, 7x7, partner max 10 µM) , report its measured combination Emax.
0.269

Lookup Cc1cc2ncnn2cc1Nc1ncc2c(n1)n(C1CCOCC1)c(=O)n2C [AZD7648] + COc1cc([C@@H]2c3cc4c(cc3[C@@H](O[C@@H]3O[C@@H]5CO[C@@H](C)O[C@H]5[C@H](O)[C@H]3O)[C@H]3COC(=O)[C@H]23)OCO4)cc(OC)c1O [Etoposide] (first compound max 10 µM, 7x7, partner max 10 µM)
0.535

Another molecule to look at: Cn1cnc2c(F)c(Nc3ccc(Br)cc3Cl)c(C(=O)NOCCO)cc21 [Selumetinib] + CC(C)n1c(=O)n(C)c2cnc3cc(F)c(-c4ccc(OCCCN5CCCCC5)nc4)cc3c21 [AZD1390] (first compound max 10 µM, 7x7, partner max 0.3 µM)
0.172

Another molecule to look at: C[C@@H](Nc1cc(F)cc(F)c1)c1cc(C(=O)N(C)C)cc2c(=O)cc(N3CCOCC3)oc12 [AZD8186] + C1CN(CCC1(C(=O)N[C@@H](CCO)C2=CC=C(C=C2)Cl)N)C3=NC=NC4=C3C=CN4 [AZD5363] (first compound max 10 µM, 7x7, partner max 10 µM)
0.395

Next entry: N#Cc1cnc(Nc2cc(NC[C@H]3CNCCO3)c(C(F)(F)F)cn2)cn1 [SRA737] + C=CCn1c(=O)c2cnc(Nc3ccc(N4CCN(C)CC4)cc3)nc2n1-c1cccc(C(C)(C)O)n1 [AZD1775] (first compound max 10 µM, partner max 1 µM)
0.633

Also CC(=O)c1c(C)c2cnc(Nc3ccc(N4CCNCC4)cn3)nc2n(C2CCCC2)c1=O [Palbociclib] + Cc1c2c(nn1C)CSCc1cc(n(C)n1)CSc1cc(c3ccccc3c1)OCCCc1c(C(=O)O)n(C)c3c-2c(Cl)ccc13 [AZD5991] (first compound max 10 µM, 7x7, partner max 1 µM) ?
0.345

Further, for CN(CCO)CC[C@H](CSc1ccccc1)Nc1ccc(S(=O)(=O)NC(=O)c2ccc(N3CCC([C@@H](O)c4ccccc4-c4ccc(Cl)cc4)CC3)cc2)cc1S(=O)(=O)C(F)(F)F [AZD4320] + CN(C)CCCOc1ccc(-c2ccc3ncc4c(c3c2)n(C2CCOCC2)c(=O)n4C)cn1 [AZD0156] (first compound max 1 µM, 7x7, partner max 1 µM) ?
0.162

Next molecule: Cn1cnc2c(F)c(Nc3ccc(Br)cc3Cl)c(C(=O)NOCCO)cc21 [Selumetinib] + C=CCn1c(=O)c2cnc(Nc3ccc(N4CCN(C)CC4)cc3)nc2n1-c1cccc(C(C)(C)O)n1 [AZD1775] (first compound max 10 µM, partner max 1 µM)
0.479

Would you mind doing Cc1cc2ncnn2cc1Nc1ncc2c(n1)n(C1CCOCC1)c(=O)n2C [AZD7648] + C=CCn1c(=O)c2cnc(Nc3ccc(N4CCN(C)CC4)cc3)nc2n1-c1cccc(C(C)(C)O)n1 [AZD1775] (first compound max 10 µM, partner max 1 µM) as well?
0.672

Query CN(CCO)CC[C@H](CSc1ccccc1)Nc1ccc(S(=O)(=O)NC(=O)c2ccc(N3CCC([C@@H](O)c4ccccc4-c4ccc(Cl)cc4)CC3)cc2)cc1S(=O)(=O)C(F)(F)F [AZD4320] + C=CCn1c(=O)c2cnc(Nc3ccc(N4CCN(C)CC4)cc3)nc2n1-c1cccc(C(C)(C)O)n1 [AZD1775] (first compound max 1 µM, partner max 1 µM) next
0.594

----------
# Test system: NCI-H1838 (Lung Adenocarcinoma)
# assay: Bliss excess, mean over the matrix (fraction); higher = more synergy
Here, each record is paired with measured Bliss excess data.
API note: the answer field is a bare number with no unit suffix.

Field: example entries. Status: answers known.
compound | Bliss excess
COc1cccc(OCCCN)c1-c1cc(Nc2cnc(C#N)cn2)n[nH]1 [Prexasertib] + CN(C)CCCOc1ccc(-c2ccc3ncc4c(c3c2)n(C2CCOCC2)c(=O)n4C)cn1 [AZD0156] (first compound max 1 µM, 7x7, partner max 1 µM) | -0.0285
NC1(C(=O)N[C@@H](CCO)c2ccc(Cl)cc2)CCN(c2ncnc3[nH]ccc23)CC1 [Capivasertib] + COc1nnc2ccc(N3CCC(c4ccc(OCCN5CCN(C)C(=O)[C@H]5C)cc4)CC3)nn12 [AZD5153] (first compound max 10 µM, 7x7, partner max 1 µM) | 0.0032
CN(CCO)CC[C@H](CSc1ccccc1)Nc1ccc(S(=O)(=O)NC(=O)c2ccc(N3CCC([C@@H](O)c4ccccc4-c4ccc(Cl)cc4)CC3)cc2)cc1S(=O)(=O)C(F)(F)F [AZD4320] + C[C@@H](Nc1cc(F)cc(F)c1)c1cc(C(=O)N(C)C)cc2c(=O)cc(N3CCOCC3)oc12 [AZD8186] (first compound max 1 µM, 7x7, partner max 3 µM) | 0.0139
Cn1cnc2c(F)c(Nc3ccc(Br)cc3Cl)c(C(=O)NOCCO)cc21 [Selumetinib] + C=CCn1c(=O)c2cnc(Nc3ccc(N4CCN(C)CC4)cc3)nc2n1-c1cccc(C(C)(C)O)n1 [AZD1775] (first compound max 10 µM, partner max 1 µM) | -0.0506
CC1(C)CCC(CN2CCN(c3ccc(C(=O)NS(=O)(=O)c4ccc(NCC5CCOCC5)c([N+](=O)[O-])c4)c(Oc4cnc5[nH]ccc5c4)c3)CC2)=C(c2ccc(Cl)cc2)C1 [Venetoclax] + CCN(CCO)CCCOc1ccc2c(Nc3cc(CC(=O)Nc4cccc(F)c4)[nH]n3)ncnc2c1 [AZD2811] (first compound max 1 µM, 7x7, partner max 1 µM) | 0.0204
Cc1cc2ncnn2cc1Nc1ncc2c(n1)n(C1CCOCC1)c(=O)n2C [AZD7648] + C[C@@H]1COCCN1C2=NC(=NC(=C2)C3(CC3)[S@](=N)(=O)C)C4=C5C=CNC5=NC=C4 [AZD6738] (first compound max 10 µM, 7x7, partner max 10 µM) | -0.0062

Item under review: COc1nnc2ccc(N3CCC(c4ccc(OCCN5CCN(C)C(=O)[C@H]5C)cc4)CC3)nn12 [AZD5153] + Cc1c2c(nn1C)CSCc1cc(n(C)n1)CSc1cc(c3ccccc3c1)OCCCc1c(C(=O)O)n(C)c3c-2c(Cl)ccc13 [AZD5991] (first compound max 1 µM, 7x7, partner max 1 µM) . Reported Bliss excess?
-0.0412

Then CN(C)CCCOc1ccc(-c2ccc3ncc4c(c3c2)n(C2CCOCC2)c(=O)n4C)cn1 [AZD0156] + C=CCn1c(=O)c2cnc(Nc3ccc(N4CCN(C)CC4)cc3)nc2n1-c1cccc(C(C)(C)O)n1 [AZD1775] (first compound max 1 µM, partner max 1 µM) ?
-0.0296

Ok, now Cc1nc(Nc2ncc(C(=O)Nc3c(C)cccc3Cl)s2)cc(N2CCN(CCO)CC2)n1 [Dasatinib] + CC(=O)Nc1cccc(-n2c(=O)n(C3CC3)c(=O)c3c(Nc4ccc(I)cc4F)n(C)c(=O)c(C)c32)c1 [Trametinib] (first compound max 2 µM, 7x7, partner max 1 µM)
-0.0793

Another: C[C@@H](c1ccc2nccn2c1)n1nnc2ncc(-c3cnn(C)c3)nc21 [Savolitinib] + Cc1c2c(nn1C)CSCc1cc(n(C)n1)CSc1cc(c3ccccc3c1)OCCCc1c(C(=O)O)n(C)c3c-2c(Cl)ccc13 [AZD5991] (first compound max 1 µM, 7x7, partner max 1 µM)
0.0218

----------
# Test system: Hey (Ovarian Carcinoma)
# assay: Bliss excess, mean over the matrix (fraction); higher = more synergy
measurement.type: Bliss excess
Kindly provide the number alone.

Looking for the measured Bliss excess of Cn1cnc2c(F)c(Nc3ccc(Br)cc3Cl)c(C(=O)NOCCO)cc21 [Selumetinib] + CCN(CCO)CCCOc1ccc2c(Nc3cc(CC(=O)Nc4cccc(F)c4)[nH]n3)ncnc2c1 [AZD2811] (first compound max 10 µM, 7x7, partner max 1 µM) , can you help?
-0.0165

Queued: COc1cc2c(cc1OCCCCCOc1cc3c(cc1OC)C(=O)N1C=C(C)C[C@H]1C=N3)N=C[C@@H]1CC(C)=CN1C2=O [SG3199] + O=C(c1cc(Cc2n[nH]c(=O)c3ccccc23)ccc1F)N1CCN(C(=O)C2CC2)CC1 [Olaparib] (first compound max 0.001 µM, 7x7, partner max 10 µM)
-0.0086

Then what about the compound COc1nnc2ccc(N3CCC(c4ccc(OCCN5CCN(C)C(=O)[C@H]5C)cc4)CC3)nn12 [AZD5153] + CCN(CCO)CCCOc1ccc2c(Nc3cc(CC(=O)Nc4cccc(F)c4)[nH]n3)ncnc2c1 [AZD2811] (first compound max 1 µM, 7x7, partner max 1 µM) ?
-0.0417

Check COc1nnc2ccc(N3CCC(c4ccc(OCCN5CCN(C)C(=O)[C@H]5C)cc4)CC3)nn12 [AZD5153] + Cn1cnc2c(F)c(Nc3ccc(Br)cc3Cl)c(C(=O)NOCCO)cc21 [Selumetinib] (first compound max 1 µM, 7x7, partner max 10 µM) too.
-0.0092
